System: M14 melanoma
Experiment: NCI-60 one-dose screen, 48 h (100 = growth as untreated, 0 = no growth, -100 = all killed)
Conditions: 10 µM
This is part of a sample that, as a whole, favours compounds with a hit. Of some 83,000 tested, about 20% had one in any assay.
measurement name: growth (%)
Give bare numbers, in %.

Guide cases for growth, answers given:
CCOC(=O)CC(S(=O)(=O)c1ccccc1)S(=O)(=O)c1ccccc1 :: 115
O=C(COc1cccc(/C=C2\CSc3ccc(Cl)cc3C2=O)c1)c1ccc(Cl)cc1 :: 94.7
CC(=O)Nc1cc2c(cc1Cl)Cc1cc(Cl)ccc1-2 :: 106

Please report growth for every entry that follows.
1. COc1cc(C(=O)n2nc(-c3cc(OC)c(OC)c(OC)c3)nc2N)cc(OC)c1OC
2. COc1cc(CNC(=O)C2CSC3(C)c4ccccc4C(=O)N23)cc(OC)c1OC (centres undefined)
3. CCOC(=O)c1cocc1C(=O)O
4. CCOC(=O)c1cc(C(=O)c2ccc(F)cc2F)n2ccccc12
5. OC(CCN1CCCC1)(c1ccccc1)C1CCCCC1 (centres undefined)
6. COc1cc(/C=C/c2cc(/C=C/c3ccc(O)c(OC)c3)nc(N)n2)ccc1O
7. CN(C)c1ccc(/C=N/NC(=O)c2ccccc2Nc2cccc(C(F)(F)F)c2)cc1

Data returned:
1. 89.9
2. 108
3. 103
4. 108
5. 99.6
6. -26.1
7. 105

Here are 8 compounds. What values of growth were reported for them?
1. O=C(O)c1ccc(-n2cc(CNc3ccc(Cl)cc3)c(-c3ccccc3)n2)cc1
2. CCN(CC)CCOc1cccc2c1C(=O)c1cccc(OCCN(CC)CC)c1C2=O
3. Cn1c2ccccc2c2c3[nH][nH]c(=O)c3c3c4ccccc4[nH]c3c21
4. CCOC(=O)c1cc(C(=O)c2cc(OC)c(OC)c(OC)c2)n2ncc3ccccc3c12
5. Cc1c[nH]c(=O)n(Cc2nnc(CCC(=O)c3nc4ccccc4[nH]3)o2)c1=O
6. O=C(CCNC(=O)c1nc(-c2ccccc2)n(-c2ccc(Cl)cc2)n1)NO
7. C=CCNCCN1C(=O)c2ccc3c4c(ccc(c24)C1=O)C(=O)N(CCNCC=C)C3=O
8. CC(C1=C(CN(C(=O)Cc2cn(-c3ccccc3)nc2-c2ccc(Cl)cc2)C(C)C)Cc2ccccc21)c1ccccn1 (centres undefined)

Data returned:
1. 94.3
2. 35.4
3. 17.4
4. 50.2
5. -16.7
6. 97
7. -84.3
8. 64.7

Lab note: each compound below needs its growth filled in.
1. Cc1ccc(S(=O)(=O)N(C)CCCCCC(=O)O)cc1
2. COc1cc(N)c2ncccc2c1SC
3. O=C(CSc1nnc(-c2cccnc2SCc2ccccc2)o1)Nc1nc(Cl)cc(Cl)n1
4. COc1ccc(C(=O)N/N=C/c2cc(C(F)(F)F)ccc2Cl)cc1

Data returned:
1. 95.1
2. 104
3. 92
4. 104

Please supply growth for each of the following items, keeping them in order.
1. CSc1nc(S(C)(=O)=O)nc2[nH]c(=O)[nH]c12
2. CCN(CC)CCOc1cccc2c1C(=O)c1ccccc1C2=O
3. CC(C)(C)c1ccc(S(=O)(=O)N[C@H]2CC[C@H]3[C@@H]4CCc5cc(OS(=O)(=O)O)ccc5[C@H]4CC[C@]23C)cc1
4. O=C(O)c1ccc(-n2cc(CNc3ccc(Oc4ccccc4)cc3)c(-c3ccccc3)n2)cc1

Data returned:
[96.7, 94.4, 54.2, 97.2]

###

Tested on: PC-3 prostate
Test: NCI-60 one-dose screen, 48 h (100 = growth as untreated, 0 = no growth, -100 = all killed)
Details: 10 µM
This is part of a sample that, as a whole, favours compounds with a hit. Of some 83,000 tested, about 20% had one in any assay.
So basically: is growth under 80%? Then 1 (yes). Not under? Then 0 (no).

Use the examples below as a reference point.
COc1cc(/C=C2\CCCC3C2=Nc2ccccc2NC3c2cc(OC)c(OC)c(OC)c2)cc(OC)c1OC (stereo not drawn) :: 1 (yes)
CN(C)CCOc1ccc(-c2nc3sccn3c2-c2ccnc(S(C)(=O)=O)n2)cc1 :: 0 (no)
CC(=O)C1CCC2C3CC=C4CC(SC(=N)N)CCC4(C)C3CCC12C (stereo not drawn) :: 1 (yes)
Cc1ccc(/C=C2/C(=O)N(C)c3ccc(S(=O)(=O)Nc4ccc(C(C)(C)C)cc4)cc32)s1 :: 1 (yes)
CC[C@@H](C(=O)[C@@H](C)[C@@H](O)[C@H](C)[C@@H]1O[C@@H]([C@@H](CC)C(=O)O)CC[C@@H]1C)C1O[C@]2(C=CC(=O)[C@]3(CC[C@@](C)([C@H]4CC[C@](O)(CC)[C@H](C)O4)O3)O2)[C@H](C)C[C@@H]1C (stereo partly drawn) :: 1 (yes)
COc1ccc(Nc2cnc3cc(NS(=O)(=O)c4ccc(C)cc4)ccc3n2)cc1 :: 0 (no)
CS(=O)(=O)c1nccc(-c2c(-c3cccc(OCc4ccc(F)cc4)c3)nc3sccn23)n1 :: 1 (yes)

Now let's try a different one.
Data request: Is growth of COc1ccc(/C=C2/SC(=S)NC2=O)c(OC)c1OC strictly below 80%?
Data returned: 1 (yes)

###

Tested on: NCI/ADR-RES ovarian
Experiment: NCI-60 one-dose screen, 48 h
Conditions: 10 µM
About 83,000 compounds went through this panel and 20% of them were active in at least one assay; those are over-represented in the sample as a whole. The source made the active and inactive calls. How the source made its calls: active means growth percent below 10; inactive means the rest.
Hello, when you answer, please use one of the following outcomes: active, inactive

COc1ccc(/C=C2\CCCC3C2=Nc2ccccc2NC3c2ccc(OC)cc2)cc1 (stereo not given) :: inactive
COc1cc2c(cc1NC(=O)C(Cl)Cl)-c1ccc(NC(=O)C(Cl)Cl)cc1C2 :: active
O=C(CC(CC(=O)c1ccccc1)c1ccccc1O)c1ccccc1 :: inactive
C1CN(CC2CCC(CN3CCOCC3)O2)CCO1 (stereo not given) :: inactive
COc1ccc(C2=Cn3c(CCC(=O)c4nc5ccccc5[nH]4)nnc3SC2)cc1 :: inactive

Data request: What outcome does the record of this test show for Cc1c(Cl)cccc1NC(=O)CN1CCOCC1 ?
Data returned: inactive

Data request: Each compound tested received a call. Report the one for Cc1noc(C)c1CSc1ccccc1C(=O)N1CCN(c2cccc(C(F)(F)F)c2)CC1 .
Data returned: inactive

###

Tested on: M14 melanoma
Test: NCI-60 one-dose screen, 48 h (100 = growth as untreated, 0 = no growth, -100 = all killed)
Details: 10 µM
Compounds without any hit were thinned out: in the full panel of roughly 83,000, 20% have a hit. Active and inactive are the calls of the source. The calls were made as follows: active = growth percent below 10; inactive = the rest.
measurement name: growth

Sample records with growth:
CC1=NN(C(=O)c2nn(-c3ccc(Cl)cc3)cc2O)C(=O)C1 :: 50.9% (inactive)
CN(C)CCN(Cc1ccccc1)c1ccc2ccccc2n1 :: 91.3% (inactive)
COc1cc(-c2ccc(N=Nc3ccc4c(S(=O)(=O)O)ccc(N)c4c3O)c(OC)c2)ccc1N=Nc1ccc2c(S(=O)(=O)O)ccc(N)c2c1O :: 107% (inactive)
CCN(CC)CCCC(C)N=C(C1=C(C(=NC(C)CCCN(CC)CC)c2cccc(OC)c2)C(=O)NC1=O)c1cccc(OC)c1 (centres undefined) :: -77.5% (active)
Cc1ccc(/C=C2/C(=O)N(C)c3ccc(S(=O)(=O)Nc4ccc(C(C)(C)C)cc4)cc32)s1 :: 83.1% (inactive)

I need growth for every entry listed below, if you could help.
1. O=C1C=C(Nc2cccc(Br)c2)c2ccccc2C1=O
2. COc1ccc(C(c2ccc(OCCN(C)C)cc2)c2cc3ccccc3c3ccccc23)cc1 (centres undefined)
3. COc1ccc(/C=C2\CCCC3=C2NC(N)=NC3c2ccc(OC)c(OC)c2)cc1OC (centres undefined)

Data returned:
14.4% (inactive)
-72.3% (active)
57.3% (inactive)

Data request: Query (compound): Cc1ccc(NCCN(C)CC(C)O)c2c(=O)c3ccc(Cl)cc3sc12 (centres undefined) ; field requested: growth
Data returned: -74.7% (active)

###

Test system: HCT-116 colon
Experiment: NCI-60 one-dose screen, 48 h (100 = growth as untreated, 0 = no growth, -100 = all killed)
Conditions: 10 µM
This is part of a sample that, as a whole, favours compounds with a hit. Of some 83,000 tested, about 20% had one in any assay.
measurement name: growth (%)
Numbers only, in %.

Study these solved cases before continuing.
COc1ccc2c(c1)C(CC(=O)NN)CCC2 (centres undefined) :: 104
CN(C)CCCN1c2ccccc2CCc2ccc(Cl)cc21 :: 43
CNS(=O)(=O)Oc1ccc(-c2ccc3occc3c2)cc1 :: 95.5

For each listed entry, give its growth.
1. COc1ccc(CCN2CCC(Nc3nc4ccccc4n3Cc3ccc(F)cc3)CC2)cc1
2. C=C/C(C)=C/C[C@]1(C)[C@H](C)[C@@H](OC(=O)CCC)[C@H](O)[C@@]23C(=C[C@H](OC)C[C@@H]12)[C@@H](OC(=O)CCC)O[C@H]3OC(C)=O
3. CN(C)c1ccc(/C=N/NC(=O)c2cccc3ccccc23)c(Cl)c1
4. Cc1c(O)c(=O)ccn1C1CCC(CC2CCC(n3ccc(=O)c(O)c3C)CC2)CC1 (centres undefined)
5. CCCCCOC(=O)Nc1nc(=O)n(C2O[C@H](C)[C@@H](O)[C@H]2O)cc1F (some centres undefined)
6. Cc1c2c(nn1C(=O)c1nn(-c3ccc(Cl)cc3)cc1O)-c1ccccc1CC2
7. O=C1/C=C/[C@@H](O)[C@@H]2C[C@@H](O)C[C@H]2/C=C/CCC[C@H](CCc2ccc(NC(=S)Nc3ccc4c(c3)C(=O)OC43c4ccc(O)cc4Oc4cc(O)ccc43)cc2)O1

Data returned:
-39.4
-70.3
31
28.4
101
7.08
-37.2
